Biological target: α5TMD T287K W249L (Homo sapiens, UniProt P28472, A271S/A273P/A277V/D270E/DELINS289-473LSISARNSLPKVAYAKAMDWFIAVCYAFVFSALIEFATVNYFTKSQPARAAKIDKMSRIVFPVLFGTFNLVYWATYLNREPVIKGAASPK/I247V/I257T/I267L/I280V/L248I/L256M/L278F/M252L/S254C/S272V/T258V/V276T/W262Q/W266L/Y269R)
Sequence (P28472 with tags, fused parts or gaps I247V/L248I/M252L/S254C/L256M/I257T/T258V/W262Q/W266L/I267L/Y269R/D270E/A271S/S272V/A273P/V276T/A277V/L278F/I280V): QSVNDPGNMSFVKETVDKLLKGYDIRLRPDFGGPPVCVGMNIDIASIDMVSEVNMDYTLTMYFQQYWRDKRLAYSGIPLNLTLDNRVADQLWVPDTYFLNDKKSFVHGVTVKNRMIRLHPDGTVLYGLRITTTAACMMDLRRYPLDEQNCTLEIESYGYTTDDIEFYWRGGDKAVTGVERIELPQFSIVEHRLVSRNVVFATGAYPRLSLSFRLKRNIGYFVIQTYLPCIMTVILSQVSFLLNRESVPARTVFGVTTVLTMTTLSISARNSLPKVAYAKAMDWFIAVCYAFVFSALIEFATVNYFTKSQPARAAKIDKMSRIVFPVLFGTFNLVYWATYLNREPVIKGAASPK
pEC50: −log10 of the molar value.
outcome.measure: pEC50

Looking up CC(=O)[C@H]1CC[C@H]2[C@@H]3CC[C@@H]4C[C@H](O)CC[C@]4(C)[C@H]3CC[C@]12C , I see its pEC50 listed as < 5.00

----------
molecular target: α5TMD (Homo sapiens, UniProt P28472+P31644, DEL351-357/DEL363-425/E358R/G348Q/K256N/R347S/W349P); assay: Thermostability binding experiment
outcome.measure: EC50 (µM)
Answer format: numeric, µM implied, no suffix.

Looking up CC(=O)[C@H]1CC[C@H]2[C@@H]3CC[C@@H]4C[C@H](O)CC[C@]4(C)[C@H]3CC[C@]12C [pregnanolone] , I see its EC50 listed as 5.5

----------
biological target: α1β3L297Aγ2 GABAAR (Homo sapiens, UniProt P14867+P28472, L322A); format: cell-based
outcome.measure: pEC50
Note on pEC50: it is the negative log10 of concentration, concentration in mol/L.

CC(=O)[C@H]1CC[C@H]2[C@@H]3CC[C@@H]4C[C@H](O)CC[C@]4(C)[C@H]3CC[C@]12C
5.60

Attention now turns to another entry.
Looking up CC(=O)[C@H]1CC[C@H]2[C@@H]3CC[C@H]4C[C@H](O)CC[C@]4(C)[C@H]3CC[C@]12C , I see its pEC50 listed as 5.80

----------
target: α5TMD Q245W (Homo sapiens, UniProt P28472, A271S/A273P/A277V/D270E/DELINS289-473LSISARNSLPKVAYATAMDWFIAVCYAFVFSALIEFATVNYFTKSQPARAAKIDKMSRIVFPVLFGTFNLVYWATYLNREPVIKGAASPK/I247V/I257T/I267L/I280V/L248I/L256M/L278F/M252L/S254C/S272V/T258V/V276T/Y269R); assay: Thermostability binding experiment
outcome.measure: EC50

Looking up CC(=O)[C@H]1CC[C@H]2[C@@H]3CC[C@@H]4C[C@H](O)CC[C@]4(C)[C@H]3CC[C@]12C , I see its EC50 listed as > 30 µM
